Tested on: FL-geph
Assay: µSPOT peptide microarray binding assay with full-length geph
Settings: µSPOT peptide microarray, GlyRβ full positional scan, intensity normalised to wild-type sequence DLRSNDFSIVGSLPR (=1)
Classes based on Fl-geph Binding Intensity [norm.]: low-valued: < 0.8 norm.; mid-valued: ≥ 0.8 norm. and < 1 norm.; high-valued: ≥ 1 norm.

Solved entries (count: 10):
- DVRSNDFSIVGSLPR [GlyRβ_Full_Positional_Scan_026]: high-valued
- DLRSNEFSIVGSLPR [GlyRβ_Full_Positional_Scan_111]: mid-valued
- CLRSNDFSIVGSLPR [GlyRβ_Full_Positional_Scan_017]: mid-valued
- DRRSNDFSIVGSLPR [GlyRβ_Full_Positional_Scan_032]: mid-valued
- DLRSNDFMIVGSLPR [GlyRβ_Full_Positional_Scan_158, GlyR β 414-428 variant S421M]: mid-valued
- DLRSNDFSIRGSLPR [GlyRβ_Full_Positional_Scan_192, GlyR β 414-428 variant V423R]: low-valued
- DKRSNDFSIVGSLPR [GlyRβ_Full_Positional_Scan_034]: mid-valued
- SLRSNDFSIVGSLPR [GlyRβ_Full_Positional_Scan_015]: mid-valued
- DLRSNGFSIVGSLPR [GlyRβ_Full_Positional_Scan_102]: high-valued
- DLRSFDFSIVGSLPR [GlyRβ_Full_Positional_Scan_087]: low-valued

Inquiry: Which bin should I file TLRSNDFSIVGSLPR [GlyRβ_Full_Positional_Scan_016] under?
Reply text: mid-valued

Inquiry: Which bin should I file DLRSYDFSIVGSLPR [GlyRβ_Full_Positional_Scan_089] under?
Reply text: low-valued
